The measured values listed here are drawn from paper PMC9028219.

- System: K562
- assayName: SRB anti-proliferative assay
- Format: cell-based
- protocolConditions: Homo sapiens, K562, 72 h
pIC50: −log10 of the molar value.
measuredQuantity: pIC50

1. Cc1ccc(C(C)C)cc1O ... 4.09

---

- Tested on: FaDu
- assayName: MTT anti-proliferative assay
- Assay type: cell-based
- protocolConditions: Homo sapiens
- Description: The cell lines used for the present study were K562 (erythroid leukemia), COLO-205 (colon carcinoma), FaDu (hypopharyngeal carcinoma), MCF-7 (breast ER+ve adenocarcinoma), WRL-68 (hepatocellular carcinoma), A549 (lung carcinoma), and HEK-293 (embryonic kidney). […] The MTT assay was performed following the protocol as Mosmann ([30]) determined. […] After that, the formazan crystal was dissolved in 100 μl DMSO and absorbance was measured at 570 nm. […]
measuredQuantity: IC50

1) Cc1ccc(C(C)C)cc1O ... 9.61 µM

---

- Test system: Hyaluronidase (HYAL)
- assayName: HYAL activity assay in cell lysate
- Format: cell-based, human
- protocolConditions: K562
measuredQuantity: IC50 (µM)

1. Cc1ccc(C(C)C)cc1O ... 62
